# STUDY SYSTEM: SlSCPx-2 (Spodoptera litura, UniProt D1GJ60)
# TEST DESCRIPTION: 1,8-ANS fluorescence displacement (competitive binding) assay, wild type rSlSCPx-2
In this scheme, each record receives a class according to its RBA (relative binding affinity); the ranges are bucket A: < 40%; bucket B: ≥ 40% and < 200%; bucket C: ≥ 200%

Example entries begin here.
{"columns": ["COMPOUND", "LABEL VALUE"],
 "data": [
  ["COc1cccc(-n2sc3c(c2=S)-c2cc(Cl)ccc2NC3(C)C)c1 [AeSCPI-2, reference compound]", "bucket B"],
  ["CC[C@H](/C=C/[C@@H](C)[C@H]1CC[C@H]2[C@@H]3CC=C4C[C@@H](O)CC[C@]4(C)[C@H]3CC[C@]12C)C(C)C", "bucket A"],
  ["Cc1cc(OCCCCc2c(C)n[nH]c2C)ccc1Cl", "bucket C"],
  ["CCCCC/C=C\\C/C=C\\CCCCCCCC(=O)O", "bucket A"],
  ["C=CCc1cccc(/C=N/NC(=O)COc2ccccc2C)c1O", "bucket A"],
  ["CCCCCCCCCCCCCCCC(=O)O", "bucket B"]
]}

Incoming: Textbook exercise: identify the category of the compound given here, CCCCCCCCCCCCCCCCCC(=O)O , according to its measured value.
Outgoing: bucket B

Incoming: Kindly state the category for this compound: CCCCCCOC(=O)c1ccc(NC(=O)CCC)cc1
Outgoing: bucket C

====

# STUDY SYSTEM: SlSCPx-2 (Spodoptera litura)
# TEST DESCRIPTION: 1,8-ANS fluorescence displacement (competitive binding) assay, wild type rSlSCPx-2
# MEASUREMENT CONTEXT: wild type; displacement of 15 µM 1,8-ANS from 15 µM SlSCPx-2, pH 7.0; read-out: IC50
# Protocol: Binding of the fluorescent probe 1, 8-ANS to sterol carrier protein (SlSCPx-2) is measured by relative increase in fluorescent intensity. Steady-state fluorescence spectra were measured on a Cary Eclipse fluorescence spectrophotometer (Varian, Mulgrave, Australia) using a 1-cm path length cuvette. The binding was monitored by measuring the fluorescence signal between 400 and 600 nm following excitation at 350 nm. […]
PROPERTY MEASURED: log10 of IC50 (log10 of the value in µM)
The figures below represent log10 of IC50, where IC50 is stated in µM.

Here is how some molecules turned out for log10 of IC50.
{"columns": ["MOLECULE", "VALUE REPORTED"],
 "data": [
  ["CCCCCCCCCCCCCCCC(=O)O", 1.77],
  ["CCCCCCCCCCCCCCCCCC(=O)O", 1.60],
  ["CC(=O)Nc1ccc(Nc2nc(-c3ccc(Cl)c(Cl)c3)cs2)cc1 [AeSCPI-1, reference compound]", 2.21]
]}

Incoming: Provide measured log10 of IC50 value, entry: C=CCc1cccc(/C=N/NC(=O)COc2ccccc2C)c1O
Outgoing: 3.94

Incoming: Give the measured log10 of IC50 for CCc1ccc(C(=O)/C=C/Nc2ccc(NC(C)=O)cc2)cc1
Outgoing: 0.63

These entries and their values trace back to paper PMC3893073.
